- EXPERIMENT NOTES: ATG_ISRE_CIS: Attagene CIS-FACTORIAL HepG2 Assay for human Interferon Regulatory Factor 1 (IRF1) binding to an Interferon-Stimulated Response Element (ISRE) (AID 2282948)
- STUDY CONDITIONS: HepG2 ISRE cis-reporter (Attagene), mRNA transcription readout; actives raise or lower the signal
The source made the active and inactive calls. Rule for the calls: active = hit-call score of the fitted dose curve at least 0.9, where 1 is the maximum; inactive = score below 0.9.
Possible outcomes: yes (1) for active, no (0) for inactive

COMPOUND	ASSIGNED CLASS
CNC(=S)NN	no (0)
CCN(CC)c1ccc(C(=O)c2ccccc2C(=O)O)c(O)c1	no (0)
Cc1ccc2oc(=O)ccc2c1	no (0)
CCCCCCCC/C=C\CCCCCCCC(=O)OCCO	no (0)
C#CC1(O)CC[C@H]2[C@@H]3CCC4=CCCC[C@@H]4[C@H]3CC[C@@]21C (stereo partly drawn)	no (0)
c1ccc2c(c1)ccc1ncccc12	yes (1)
Cn1c([N+](=O)[O-])cnc1COC(N)=O	no (0)
CC(=O)c1ccc[nH]1	no (0)
c1ccc(CCCc2ccncc2)cc1	no (0)
COCCCOCCCOC	no (0)
C/C=C\C/C=C/CCCCCCCCOC(C)=O	yes (1)
CC(CC=O)CCCC(C)(C)O (stereo not drawn)	no (0)
CC(C)(C)c1ccc(-c2ccc(C(C)(C)C)cc2)cc1	no (0)
c1ccc2c(c1)ccc1cc3c(ccc4ccccc43)cc12	no (0)
CC/C=C\C/C=C\C/C=C\CCCCCCCC(=O)O	yes (1)
C=C[Si](C)(C)O[Si](C)(C)C=C	no (0)
CC(C)(C)C1CCCCC1=O (stereo not drawn)	no (0)
CCCCCCCC[N+](C)(CCCCCCCC)CCCCCCCC	no (0)
O=S(=O)(O)c1ccc2cc(O)c(S(=O)(=O)O)cc2c1	yes (1)
CC/C=C\CCOC(=O)CCCCC	no (0)
CCc1nccnc1C	no (0)
COC(=O)/C=C\C(=O)O	no (0)
CCCCCCCCC(=O)OCC	no (0)
O=S(=O)(O)c1ccccc1C=Cc1ccc(-c2ccc(C=Cc3ccccc3S(=O)(=O)O)cc2)cc1	no (0)
CC(=O)Nc1ccc2c(c1)Cc1cc(NC(C)=O)ccc1-2	no (0)
C=C(C)[C@@H]1CCC2=CCC[C@@H](C)[C@]2(C)C1	no (0)
OC1OCCOC1O (stereo not drawn)	no (0)
O=C(O)C(c1ccc(Cl)cc1)c1ccc(Cl)cc1	no (0)
